Emax values for the molecules below.
Target: human 5-HT1A receptor subtype (5-HT1A CHO cells) (Homo sapiens)
Construct: expressed in transfected cells
Sequence (P08908 1-422): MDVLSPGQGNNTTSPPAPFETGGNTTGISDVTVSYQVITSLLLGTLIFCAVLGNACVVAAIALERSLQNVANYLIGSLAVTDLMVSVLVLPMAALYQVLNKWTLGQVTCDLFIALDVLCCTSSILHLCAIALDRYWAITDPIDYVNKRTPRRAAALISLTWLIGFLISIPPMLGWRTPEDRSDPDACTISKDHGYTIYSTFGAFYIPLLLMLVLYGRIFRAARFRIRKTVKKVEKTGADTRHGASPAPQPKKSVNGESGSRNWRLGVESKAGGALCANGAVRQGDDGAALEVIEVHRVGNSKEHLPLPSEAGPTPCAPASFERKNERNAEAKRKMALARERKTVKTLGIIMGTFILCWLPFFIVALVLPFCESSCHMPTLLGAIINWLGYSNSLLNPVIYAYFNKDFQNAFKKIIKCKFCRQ
Assay: forskolin-stimulated cAMP formation (cAMP SPA assay)
Type: cell-based
Conditions: forskolin 1 uM
Source text: The PCR cloning of the human 5-HT1A receptor subtype from a human genomic library has been described previously Chanda et al., Mol. Pharmacol., 43:516 (1993). A stable Chinese hamster ovary cell line expressing the human 5-HT1A receptor subtype (5-HT1A.CH2O cells) was employed throughout this study. Cells were maintained in DMEM supplemented with 10% fetal calf serum, non-essential amino acids and penicillin/streptomycin. […]
Give the quantity in %, number only.

COc1ccc2[nH]cc([C@H]3CC[C@H](N4CCN(c5ccccc5OC)CC4)CC3)c2c1 [Example 20b]    75.5
Cn1cc([C@H]2CC[C@@H](N3CCN(c4cccc5cccnc45)CC3)CC2)c2cc(C#N)ccc21    95
c1cc(N2CCN([C@H]3CC[C@@H](c4c[nH]c5ncccc54)CC3)CC2)c2cc[nH]c2c1 [Example 10a]    0
Fc1ccc2c(c1)[nH]cc2[C@H]1CC[C@@H](N2CCN(c3cccc4c3OCCO4)CC2)CC1 [Example 25a]    0
N#Cc1ccc2[nH]cc([C@H]3CC[C@H](N4CCN(c5cccc6[nH]ccc56)CC4)CC3)c2c1    83
Fc1ccc2[nH]cc([C@H]3CC[C@@H](N4CCN(c5cccc6[nH]ccc56)CC4)CC3)c2c1    0

In: Recorded Emax for N#Cc1ccc2[nH]cc([C@H]3CC[C@@H](N4CCN(c5cccc6c5OCCO6)CC4)CC3)c2c1 [Example 26a] , please?
Out: 0

In: Further, for c1cc(N2CCN([C@H]3CC[C@H](c4c[nH]c5ncccc54)CC3)CC2)c2cc[nH]c2c1 [Example 10b] ?
Out: 79

In: Further, for COc1ccccc1C1CCN([C@H]2CC[C@H](c3c[nH]c4ccc(F)cc43)CC2)CC1 [Example 19b] ?
Out: 92

In: Further, for `N#Cc1ccc2[nH]cc([C@H]3CC[C@@H](N4CCN(c5cccc6[nH]ccc56)CC4)CC3)c2c1` ?
Out: 0

In: Further, for Fc1ccc2[nH]cc([C@H]3CC[C@@H](N4CCN(c5cccc6c5OCCO6)CC4)CC3)c2c1 [Example 24a] ?
Out: 81

In: Further, for N#Cc1ccc2[nH]cc([C@H]3CC[C@@H](N4CCN(c5cccc6cccnc56)CC4)CC3)c2c1 [Example 29a] ?
Out: 0
